Experiment: UV absorption properties (λmax, molar extinction coefficient ε, efficiency E 1%, 1 cm)
Assay type: physicochemical
Property measured: UV λmax (nm)

In [3]: df
Out[3]:
                               smiles_input  property_measured  experimental_result
0  CC(C)CN1C=C(C(=O)c2ccc(-c3ccccc3)cc2)C(C)(C)CC1            UV λmax                  320
1  CC1(C)CCN(C(C)(C)C)C=C1C(=O)Nc1cccc(NC(=O)C2=CN(C(C)(C)C)CCC2(C)C)c1            UV λmax                  313
2  Cc1ccc(N2C=CC(C)(C)C(C(=O)C(F)(F)F)=C2)cc1            UV λmax                  388
3  CC1(C)CCN(c2ccccc2)C=C1C(=O)c1ccc(Br)cc1            UV λmax                  338
4  CC(C)CN1C=C(C(=O)c2ccc(C(=O)c3ccccc3)cc2)C(C)(C)CC1            UV λmax                  295

###

Experiment: UV absorption properties (λmax, molar extinction coefficient ε, efficiency E 1%, 1 cm)
Type: physicochemical
Details: Table 5; values in order of the λmax values; in M-1 cm-1
Property measured: ε

                                   compound  experimental_result
0  CC1(C)CCN(C(C)(C)C)C=C1C(=O)COc1ccccc1 [drawing 74]                26154

1. CC1(C)CCN(C(C)(C)C)C=C1C(=O)c1ccncc1 [drawing 75]
2. CC1(C)CCN(C(C)(C)C)C=C1C(=O)C1=CN(C(C)(C)C)CCC1(C)C [drawing 73]
3. CC1(C)CCN(C(C)(C)C)C=C1C(=O)CCCCCCCCC(=O)C1=CN(C(C)(C)C)CCC1(C)C [drawing 72]
Rank entries according to their ε, from the largest number down. Write the labels out in the order the request specifies. 3, 1, 2
(3: 54797, 1: 23556, 2: 16425)

###

Assay: UV absorption properties (λmax, molar extinction coefficient ε, efficiency E 1%, 1 cm)
Format: physicochemical
Details: Table 13B; values in order of the λmax values
Property measured: E (1%, 1 cm)

                                   compound  experimental_result
0  CCCCCCCCCC(=O)C1=CN(c2ccc(N3C=C(C(=O)CCCCCCCCC)C(C)(C)CC3)cc2)CCC1(C)C                  898
1  COC(=O)c1cc(/C=C/C(=O)C2=CN(C(C)(C)C)CCC2(C)C)ccc1/C=C/C(=O)C1=CN(C(C)(C)C)CCC1(C)C                  525
2  CC(C)=CCCC(C)CC(=O)C1=CN(c2ccc(N3C=C(C(=O)CC(C)CCC=C(C)C)C(C)(C)CC3)cc2)CCC1(C)C (stereo not shown) [drawing 213]                  550
3   CC1(C)CCN(C(C)(C)C)C=C1C(=O)c1ccc(F)cc1                  655

###

Assay: UV absorption properties (λmax, molar extinction coefficient ε, efficiency E 1%, 1 cm)
Format: physicochemical
Details: unit inferred
Property measured: ε value

Please list ε value recorded for the molecule `Cc1ccc(N2C=C(C(=O)CCCCCCCCC(=O)C3=CN(c4ccc(C)cc4)CCC3(C)C)C(C)(C)CC2)cc1` > 52000 M⁻¹ cm⁻¹

Please list ε value recorded for the molecule `CC1(C)CCN(C(C)(C)C)C=C1C(=O)Nc1ccccc1` 35000 M⁻¹ cm⁻¹

Please list ε value recorded for the molecule `CC1(C)CCN(C(C)(C)C)C=C1C(=O)CCCCCCCCC(=O)C1=CN(C(C)(C)C)CCC1(C)C` > 54000 M⁻¹ cm⁻¹
